Reference source for all entries: ChEMBL document CHEMBL4130491

test system: HepG2; test: Cytotoxicity in palmitate-induced insulin-resistant human HepG2 cells assessed as reduction in cell viability at 12.5 uM incubated for 24 hrs by MTT assay; assay type: cell-based; conditions: hepg2, 24 h
measured.metric: Activity

substance_smiles=O=C(O)[C@H]1O[C@@H](Oc2cc3oc(-c4ccccc4)cc(=O)c3c(O)c2O[C@@H]2O[C@H](CO)[C@@H](O)[C@H](O)[C@H]2O)[C@H](O)[C@@H](O)[C@@H]1O value=Non-Toxic
substance_smiles=O=c1cc(-c2ccccc2)oc2cc(O)c(O)c(O)c12 value=Non-Toxic
substance_smiles=O=C(O)[C@H]1O[C@@H](Oc2cc3oc(-c4ccccc4)cc(=O)c3c(O)c2O)[C@H](O)[C@@H](O)[C@@H]1O value=Non-Toxic
substance_smiles=COc1c(O[C@@H]2O[C@H](C(=O)O)[C@@H](O)[C@H](O)[C@H]2O)cc2oc(-c3ccccc3)cc(=O)c2c1O value=Non-Toxic

###

biological target: AMP-activated protein kinase, AMPK (Homo sapiens) (UniProt P54646+O43741+P54619+Q9UGJ0+Q9Y478+Q13131+Q9UGI9); test: Activation of AMPK in palmitate-induced insulin-resistant human HepG2 cells assessed as reduction in G6Pase mRNA expression at 12.5 uM incubated for 24 hrs by real-time PCR method; type: cell-based
Activity calls are given as the source filed them. No cut-off for these calls is given here.
measured.metric: Activity

molecule="CN(CCOc1ccc(CC2SC(=O)NC2=O)cc1)c1ccccn1 (centres undefined)" measured_metric=Activity value=Active
molecule=O=C(O)[C@H]1O[C@@H](Oc2cc3oc(-c4ccccc4)cc(=O)c3c(O)c2O)[C@H](O)[C@@H](O)[C@@H]1O measured_metric=Activity value=Active
molecule=O=C(O)[C@H]1O[C@@H](Oc2cc3oc(-c4ccccc4)cc(=O)c3c(O)c2O[C@@H]2O[C@H](CO)[C@@H](O)[C@H](O)[C@H]2O)[C@H](O)[C@@H](O)[C@@H]1O measured_metric=Activity value=Active
molecule=O=c1cc(-c2ccccc2)oc2cc(O)c(O)c(O)c12 measured_metric=Activity value=Active

###

test: Cytotoxicity in human HepG2 cells assessed as cell viability at 25 uM incubated for 24 hrs by MTT assay; type: cell-based; settings: read-out: Activity
measured.metric: viability at 24 h, 25 µM (%)
Form entry: value (%) — number only.

Inquiry: Return viability at 24 h, 25 µM for the following compound: O=C(O)[C@H]1O[C@@H](Oc2cc3oc(-c4ccccc4)cc(=O)c3c(O)c2O)[C@H](O)[C@@H](O)[C@@H]1O [BAICALIN]
Reply text: 85

###

target: AMP-activated protein kinase, AMPK (Homo sapiens) (UniProt P54646+O43741+P54619+Q9UGJ0+Q9Y478+Q13131+Q9UGI9); test: Activation of AMPK in palmitate-induced insulin-resistant human HepG2 cells assessed as increase in AMPK phosphorylation at 12.5 uM incubated for 24 hrs by Western blot method; type: cell-based
Activity calls are given as the source filed them. The rule behind the calls is not given here.
measured.metric: Activity

compound=O=C(O)[C@H]1O[C@@H](Oc2cc3oc(-c4ccccc4)cc(=O)c3c(O)c2O[C@@H]2O[C@H](CO)[C@@H](O)[C@H](O)[C@H]2O)[C@H](O)[C@@H](O)[C@@H]1O value=Active
compound="O=c1cc(-c2ccccc2)oc2cc(O)c(O)c(O)c12 [BAICALEIN]" value=Active
compound="O=C(O)[C@H]1O[C@@H](Oc2cc3oc(-c4ccccc4)cc(=O)c3c(O)c2O)[C@H](O)[C@@H](O)[C@@H]1O [BAICALIN]" value=Active
compound="CN(CCOc1ccc(CC2SC(=O)NC2=O)cc1)c1ccccn1 (centres undefined) [ROSIGLITAZONE]" value=Active
